Entry source: PubChem BioAssay (NCI)

tested on: SNB-19 CNS; experiment: NCI tumour cell line growth inhibition, 48 h; in the data active = GI50 below about 0.43 µM; inactive = the rest
Just give me one of these, please: active, inactive

Solved cases (5 shown):
>>> category("CN(C)CCCNc1nccc(-c2c(-c3ccc(F)cc3)nn3cc(C(F)(F)F)ccc23)n1")
"inactive"
>>> category("COc1cc([C@@H]2c3cc4c(cc3[C@H](O)[C@H]3COC(=O)[C@H]23)OCO4)cc(OC)c1OC")
"active"
>>> category("NCC1OC(OC2C(CO)OC(OC3C(O)C(N)CC(N)C3OC3OC(CO)C(O)C(O)C3N)C2O)C(N)C(O)C1O (stereo not drawn)")
"inactive"
>>> category("COc1ccc(C2=C(c3cc(OC)c(OC)c(OC)c3)C(=O)CC2)cc1")
"active"
>>> category("C=C1CCC2C3(C)COC(c4ccc(SC)cc4)OC3CCC2(C)C1C/C=C1/C(=O)OCC1O (stereo not drawn)")
"inactive"

Fill in: this test's call for `C#CCNC(=O)CC[C@]1(C)[C@H]2CC[C@@H]3[C@@H]([C@@](C)(O)CCC=C(C)C)CC[C@@]3(C)[C@]2(C)CC[C@H]1C(=C)C` is ___
inactive

Fill in: this test's call for `Cc1cc(-c2nc(-c3ccc(OC(F)(F)F)cc3)no2)nn1Cc1ccnc(N2CCN(C3CC3)CC2)c1` is ___
inactive

Fill in: this test's call for `CC[O-].Cc1ccc2cccc([O-])c2n1.Cc1ccc2cccc([O-])c2n1.Cc1ccc2cccc([O-])c2n1.[Ti+4]` is ___
inactive

====

GI50: recorded values
test system: A498 renal; assay: NCI tumour cell line growth inhibition, 48 h

Answered cases to consult:
>>> observed("Oc1cc(O)c2c(=S)cc(-c3ccc(Cl)cc3)oc2c1")
"1.22 µM"
>>> observed("CNC(C)C(=O)N[C@H](C(=O)N1CCC[C@@H]1CN(CCc1ccccc1)C(=O)C(F)(F)F)[C@H](C)OCC#CC#CCO[C@H](C)[C@H](NC(=O)[C@H](C)NC)C(=O)N1CCC[C@H]1CN(CCc1ccccc1)C(=O)C(F)(F)F (some centres not stated)")
"1.03 µM"
>>> observed("O=C1C(Cl)=C(Nc2cccc(O)c2)C(=O)N1c1ccc(Cl)c(Cl)c1")
"12.1 µM"

What value of measured GI50 is listed for `CC1=C(/C=C/C(C)=C/C=C/C(C)=C/C(=O)Nc2ccc(O)cc2)C(C)(C)CCC1` ?
1.96 µM

What value of measured GI50 is listed for `CC[O-].Cc1ccc2cccc([O-])c2n1.Cc1ccc2cccc([O-])c2n1.Cc1ccc2cccc([O-])c2n1.[Ti+4]` ?
> 63.2 µM

What value of measured GI50 is listed for `O=C1c2ccccc2-c2c1c1ccccc1c(=O)n2CCCN1CCN(CCCn2c3c(c4ccccc4c2=O)C(=O)c2ccccc2-3)CC1` ?
> 55.3 µM

What value of measured GI50 is listed for COc1cc(C2CC(c3cc(C)ccc3C)=NN2c2ccc(S(=O)(=O)NC(=O)NCc3ccccc3)cc2)cc(OC)c1OC (configuration not stated) ?
3.09 µM

====

tested on: UACC-62 melanoma; assay: NCI tumour cell line growth inhibition, 48 h
Test Readout: TGI

Answered cases to consult:
>>> observed("CC(C)C(=O)/C=C/c1ccc(Cl)cc1")
"36.4 µM"
>>> observed("OCC1OC(n2nc(-c3ccccc3)nc2-c2cnccn2)C(O)C1O (stereo unspecified)")
"> 100 µM"
>>> observed("O=C1c2nn(-c3ccccc3)nc2C(c2ccccc2)N1c1ccccc1 (stereo unspecified)")
"> 100 µM"
>>> observed("NC(=O)C(NC=O)c1ccccc1 (stereo unspecified)")
"> 100 µM"
>>> observed("O=C(Nc1ccccc1C(=O)O)/C(=C/c1ccccc1)NC(=O)c1ccccc1")
"> 100 µM"
>>> observed("COc1ccc(N[C@H](CS(=O)c2ccc(C)cc2)C(F)(F)C(F)(F)F)cc1 (stereo partly specified)")
"> 100 µM"
>>> observed("CCOC(=O)C1=C(C)NC(=O)NC1c1coc2cc(C)cc(C)c2c1=O (stereo unspecified)")
"> 100 µM"
>>> observed("Cc1nc(/N=C(\\N)NC(=O)Nc2ccccc2Cl)sc1C")
"> 100 µM"

What value of measured TGI is listed for `CCCC(=O)OC[n+]1cccc(-c2c(COC(=O)NC(C)C)c(COC(=O)NC(C)C)c3n2CCC3)c1` ?
61.8 µM

What value of measured TGI is listed for `C=C1C(=O)O[C@@H]2C[C@@H]1CC[C@@]1(C)O[C@@H]1CC[C@@]1(C)O[C@@H]1CC[C@@]2(C)O` ?
30.2 µM

What value of measured TGI is listed for `CC[CH2][Sn]([Cl])([Cl])[CH2]CC` ?
17.5 µM

====

TGI: recorded values
tested on: SF-539 CNS; assay: NCI tumour cell line growth inhibition, 48 h

Answered cases to consult:
>>> observed("CC1=C[C@]2(CC(C)C3C(CC4(C)C5CCC6C(C)(C)C(=O)CC[C@@]67C[C@@]57CC[C@]34C)O2)OC1=O (stereo partly specified)")
"42.5 µM"
>>> observed("CCc1c(Cl)nc(Cl)nc1Cl")
"1.77 µM"

What value of measured TGI is listed for `COC(=O)c1ccc([N+](=O)[O-])c(O)c1` ?
> 100 µM

What value of measured TGI is listed for Nc1ncnc2c1ncn2C1CCC(CO)O1 (stereo unspecified) ?
> 100 µM

What value of measured TGI is listed for `O=c1c2ccccc2nc(-c2ccccc2)n1NC(=S)Nc1ccc(Cl)cc1[N+](=O)[O-]` ?
> 100 µM

What value of measured TGI is listed for `CN(C)CCCNc1nccc(-c2c(-c3ccc(F)cc3)nn3cc(C(F)(F)F)ccc23)n1` ?
> 25 µM

====

tested on: HOP-62 NSCLC; assay: NCI tumour cell line growth inhibition, 48 h
Test Readout: TGI

>>> observed("O=c1c2ccccc2c(=O)c2c1cc(Cl)c1[nH]c3c([nH]c12)c(Cl)cc1c(=O)c2ccccc2c(=O)c13")
"> 100 µM"

What value of measured TGI is listed for `O=C1/C(=C\c2coc3ccccc3c2=O)c2ccccc2N1c1c(Cl)cccc1Cl` ?
> 100 µM

What value of measured TGI is listed for `Oc1cc(O)c2c(=S)cc(-c3ccc(Cl)cc3)oc2c1` ?
11.2 µM

What value of measured TGI is listed for NCC(NC(=O)OCc1ccccc1)C(=O)O (stereo not given) ?
> 50 µM

What value of measured TGI is listed for `O=C(O)CCCCn1cnc2c(=S)nc[nH]c21` ?
> 100 µM

What value of measured TGI is listed for CC(/C=C/c1ccc([N+](=O)[O-])o1)=N/N1CC(CN2CCOCC2)OC1=O (stereo not given) ?
> 100 µM

What value of measured TGI is listed for `C/C(=C\CCc1ccoc1)CC/C=C(\C)CCCN1CCC(CO)CC1` ?
9.6 µM

What value of measured TGI is listed for CC(C)=CC(=O)OC1C2C(C)C(=O)OC2C(O)C(C)C2C=CC(=O)C21C (stereo not given) ?
14.7 µM

What value of measured TGI is listed for `O=C(/C=C(\Nc1ccccc1O)c1ccccc1)C(=O)NC12CC3CC(CC(C3)C1)C2` ?
> 10 µM

What value of measured TGI is listed for `Nc1ccccc1NC(=O)c1ccc(CN2CCC/C(=C\c3cccc(Cl)c3)C2=O)cc1` ?
> 100 µM

====

tested on: PC-3 prostate; experiment: NCI tumour cell line growth inhibition, 48 h
Test Readout: GI50

Answered cases to consult:
>>> observed("Clc1ccc(-c2nn3ncccc3c2-c2ccnc(Nc3ccccc3)n2)cc1")
"7.3 µM"
>>> observed("CCCN(CCC)CCCNC(=O)c1cc2c(-c3ccc(OC)c(OC)c3)nn(C)c2s1")
"33.8 µM"

# query: GI50 | item `Oc1cc(O)c2c(=S)cc(-c3ccc(Cl)cc3)oc2c1` | system: PC-3 prostate
2.84 µM

# query: GI50 | item `COC(=O)Nc1nc2cc3c(cc2s1)OCCO3` | system: PC-3 prostate
> 50 µM

# query: GI50 | item `COc1ccc(-c2cc(/C=C3\C(=O)Nc4ccc(OC)cc43)[nH]n2)cc1` | system: PC-3 prostate
> 100 µM

====

system: CCRF-CEM leukemia; experiment: NCI tumour cell line growth inhibition, 48 h; in the data active means GI50 below about 0.43 µM; inactive means the rest
Just give me one of these, please: Yes for active, No for inactive

Solved cases (5 shown):
>>> category("N#Cc1c(NC(=O)CN2CCOCC2)sc2c1CCCC2")
"No"
>>> category("Oc1cc(O)c2c(=S)cc(-c3ccc(Cl)cc3)oc2c1")
"No"
>>> category("O=C1C(Cl)=C(Nc2cccc(O)c2)C(=O)N1c1ccc(Cl)c(Cl)c1")
"No"
>>> category("Cc1cc(-c2nc(-c3ccc(OC(F)(F)F)cc3)no2)nn1Cc1ccnc(N2CCN(C3CC3)CC2)c1")
"No"
>>> category("C=C1CCC2C3(C)COC(c4ccc(SC)cc4)OC3CCC2(C)C1C/C=C1/C(=O)OCC1O (stereo not given)")
"No"

Fill in: this test's call for `CCCN(CCC)CCCNC(=O)c1cc2c(-c3ccc(OC)c(OC)c3)nn(C)c2s1` is ___
No
